Data credit: patent US7960394B2

# assay notes: Brain/cerebrospinal fluid migration test
# Assay type: in vivo, SD male rats
# condition: male, SD, cerebrospinal fluid; rat, oral administration 10 mg/kg, in 2 hours; read-out: concentration in the cerebrospinal fluid
measure name: concentration at 2 h (nM)
Respond numerically; units are nM and should not be typed.

Q. Return reported concentration at 2 h; argument: Cn1c(-c2ccc(OC3CCN(C4CC4)CC3)cc2)nc2ccccc2c1=O
A. 27
